IC50 values by entry
- System: PC-9 cells (EGFR Ex19Del)
- Assay Explanation: Potency Assay: pERK (SOS1 pERK IC50 Assay, AlphaLISA SureFire Ultra p-ERK1/2)
- Format: cell-based
- Test Conditions: Homo sapiens; PC-9 cells (EGFR Ex19Del), 1 hour incubation, AlphaLISA p-ERK1/2; read-out: SOS1 pERK IC50

Example entries begin here.
C[C@@H](Nc1nc(Cl)nc2c1CN(C(=O)c1cccc(C(F)(F)F)n1)CC2)c1cc(N)cc(C(F)(F)F)c1
> 1000 nM
C[C@@H](Nc1nc(Cl)nc2c1CN(C(=O)C1(F)CCNCC1)C2)c1cccc(C(F)F)c1F
< 1000 nM
C[C@@H](Nc1nc(Cl)nc2c1CN(C(=O)C1CCN3CCOCC13)C2)c1cccc(C(F)F)c1F (stereo partly shown)
> 1000 nM
C[C@@H](Nc1nc(Cl)nc2c1CN(C(=O)N1CCN(C)CC1)C2)c1cccc(C(F)F)c1F
< 1000 nM
C[C@@H](Nc1ncnc2c1CN(C(=O)N1CCOCC1)C2)c1cccc(C(F)F)c1F
> 1000 nM
C[C@@H](Nc1nc(Cl)nc2c1CN(C(=O)[C@]13CN[C@H](CO1)C3)C2)c1cccc(C(F)F)c1F
< 1000 nM

IC50 reading for C[C@@H](Nc1nc(Cl)nc2c1CN(C(=O)[C@H]1C[C@@H](O)C1)C2)c1cc(N)cc(C(F)(F)F)c1 : < 1000 nM

---

- System: PC-9 cells (EGFR Ex19Del)
- Assay Explanation: Potency Assay: pERK (SOS1 pERK IC50 Assay, AlphaLISA SureFire Ultra p-ERK1/2)
- Type: cell-based
- Test Conditions: Homo sapiens; PC-9 cells (EGFR Ex19Del), 1 hour incubation, AlphaLISA p-ERK1/2; read-out: SOS1 pERK IC50
pIC50: −log10 of the molar value.
Measured Property: pIC50

The following compounds have reported results that may help.
Cc1nc2c(c(N[C@H](C)c3cc(N)cc(C(F)(F)F)c3)n1)CN(C(=O)N1CCN(C)CC1)C2
> 6.00
C[C@@H](Nc1nc(Cl)nc2c1CN(C(=O)C1(O)CCOCC1)CC2)c1cc(N)cc(C(F)(F)F)c1
< 6.00
C[C@@H](Nc1nc(Cl)nc2c1CN(C(=O)N1CCOCC1)C2)c1cccc(C(F)F)c1F
> 6.00

Next compound, please.
Entry C[C@@H](Nc1nc(Cl)nc2c1CN(C(=O)C1(F)CN(C3COC3)C1)C2)c1cccc(C(F)F)c1F — recorded pIC50 = > 6.00

---

- Test system: PC-9 cells (EGFR Ex19Del)
- Assay Explanation: Potency Assay: pERK (SOS1 pERK IC50 Assay, AlphaLISA SureFire Ultra p-ERK1/2)
- Format: cell-based
- Test Conditions: Homo sapiens; PC-9 cells (EGFR Ex19Del), 1 hour incubation, AlphaLISA p-ERK1/2; read-out: SOS1 pERK IC50
pIC50: −log10 of the molar value.
Measured Property: pIC50

C[C@@H](Nc1nc(Cl)nc2c1CN(C(=O)C1(C)CCNCC1)C2)c1cccc(C(F)(F)F)c1
< 6.00

Cc1c(C(C)Nc2nc(Cl)nc3c2CN(C(=O)N2CCOCC2)C3)cccc1C(F)(F)F (stereo not shown) has a reported pIC50 of > 6.00

The measured pIC50 associated with C[C@@H](Nc1nc(Cl)nc2c1CN(C(=O)[C@@H]1CNC[C@@H]1C)C2)c1cc(N)cc(C(F)(F)F)c1 reads < 6.00

pIC50 reported for this compound COC1(C(=O)N2Cc3nc(Cl)nc(N[C@H](C)c4cccc(C(F)F)c4F)c3C2)CNC1 : > 6.00

Lookup result for COC(=O)N1C[C@@H]2COC[C@]2(C(=O)N2CCc3nc(Cl)nc(N[C@H](C)c4cc(N)cc(C(F)(F)F)c4)c3C2)C1 ; measured pIC50: < 6.00

Noted for CC(Nc1nc(Cl)nc2c1CN(C(=O)N1CCOCC1)C2)c1ccc(-c2ccccc2CO)s1 (stereo not shown) : its pIC50 reads < 6.00

Form: compound = C[C@@H](Nc1nc(Cl)nc2c1CN(C(=O)N1C[C@@H]3C[C@H]1CN3)C2)c1cccc(C(F)F)c1F ; pIC50 = < 6.00

---

The following compounds are shown together with reported pIC50 values.
- System: PC-9 cells (EGFR Ex19Del)
- Assay Explanation: Potency Assay: pERK (SOS1 pERK IC50 Assay, AlphaLISA SureFire Ultra p-ERK1/2)
- Format: cell-based
- Test Conditions: Homo sapiens; PC-9 cells (EGFR Ex19Del), 1 hour incubation, AlphaLISA p-ERK1/2; read-out: SOS1 pERK IC50
pIC50: −log10 of the molar value.

Example cases with answers are listed next.
CCc1cc(N)cc(C(C)Nc2nc(Cl)nc3c2CN(C(=O)N2CCOCC2)C3)c1 (stereo not drawn) [Example 41]
> 6.00
C[C@@H](Nc1nc(Cl)nc2c1CN(C(=O)N1CCOc3ncccc31)C2)c1cccc(C(F)(F)F)c1 [Example 366]
> 6.00
C[C@@H](Nc1nc(C2CNC2)nc2c1CN(C(=O)N1CCOCC1)C2)c1cccc(C(F)F)c1F [Example 446]
< 6.00

Please fill in: pIC50 reported for CC(=O)NC1(C(=O)N2Cc3nc(Cl)nc(N[C@H](C)c4cccc(C(F)F)c4F)c3C2)CCCCC1 [Example 332] = < 6.00

Reported pIC50 of C[C@@H](Nc1nc(Cl)nc2c1CN(C(=O)N1CCN(C3COC3)CC1)C2)c1cccc(C(F)F)c1F [Example 383] : > 6.00

Reported pIC50 for C[C@@H]1OCC2(CCN(C(=O)N3Cc4nc(Cl)nc(N[C@H](C)c5cccc(C(F)F)c5F)c4C3)CC2)[C@@H]1N [Example 424] was < 6.00

Input C[C@@H](Nc1nc(Cl)nc2c1CN(C(=O)c1csc(C3CCNCC3)n1)C2)c1cc(N)cc(C(F)(F)F)c1 [Example 92] . Output pIC50: < 6.00

Documented pIC50 of C[C@@H](Nc1nc(Cl)nc2c1CN(C(=O)c1cccc3c1OCCN3)C2)c1cc(N)cc(C(F)(F)F)c1 [Example 77] : > 6.00

The compound identified as C[C@@H](Nc1nc(Cl)nc2c1CN(C(=O)N1CCNc3ncccc31)C2)c1cc(N)cc(C(F)(F)F)c1 [Example 138] registered its pIC50 at > 6.00

Memo: COC1(C(=O)N2CCc3nc(Cl)nc(N[C@H](C)c4cc(N)cc(C(F)(F)F)c4)c3C2)CCC1 [Example 203] , reported pIC50: < 6.00

Form field pIC50, entry C[C@@H](Nc1nc(Cl)nc2c1CN(C(=O)N1CCNC3(CC3)C1)C2)c1cccc(C(F)(F)F)c1 [Example 374] : > 6.00

The reported pIC50 of the compound C[C@@H](Nc1nc(Cl)nc2c1CN(C(=O)C1CCNCC1)C2)c1cc(N)cc(C(F)(F)F)c1 [Example 270] was < 6.00

For reference, reported pIC50 for COC12CCC(C(=O)N3CCc4nc(Cl)nc(N[C@H](C)c5cc(N)cc(C(F)(F)F)c5)c4C3)(CC1)C2 [Example 196] stands at < 6.00

compound C[C@@H](Nc1nc(Cl)nc2c1CN(C(=O)C1COCCN(C)C1)C2)c1cccc(C(F)F)c1F (stereo partly drawn) [Example 320] , pIC50 observed: > 6.00

The compound C[C@@H](Nc1nc(Cl)nc2c1CN(C(=O)[C@@H]1COCCN1)C2)c1cccc(C(F)F)c1F [Example 309] showed pIC50 equal to > 6.00

---

- System: PC-9 cells (EGFR Ex19Del)
- Assay Explanation: Potency Assay: pERK (SOS1 pERK IC50 Assay, AlphaLISA SureFire Ultra p-ERK1/2)
- Type: cell-based
- Test Conditions: Homo sapiens; PC-9 cells (EGFR Ex19Del), 1 hour incubation, AlphaLISA p-ERK1/2; read-out: SOS1 pERK IC50
Measured Property: IC50

The following compounds have reported results that may help.
COC1(C(=O)N2Cc3nc(C)nc(N[C@H](C)c4cccc(C(F)(F)CO)c4)c3C2)CCOCC1
> 1000 nM
C[C@@H](Nc1nc(Cl)nc2c1CN(C(=O)[C@@H]1C[C@H]1C#N)CC2)c1cc(N)cc(C(F)(F)F)c1
< 1000 nM

Memo: C[C@@H](Nc1nc(Cl)nc2c1CN([C@H]1CC[C@H](C(=O)N(C)C)CC1)C2)c1cc(N)cc(C(F)(F)F)c1 , reported IC50: > 1000 nM

So, C[C@@H](Nc1nc(Cl)nc2c1CN(C(=O)N1CCC13CNC3)C2)c1cccc(C(F)F)c1F ? Its IC50 was > 1000 nM

Quick note, IC50 for C[C@@H](Nc1nc(Cl)nc2c1CN(C(=O)N1CCCC13CCNC3)C2)c1cccc(C(F)F)c1F (stereo partly shown) landed at > 1000 nM

Data point: C[C@@H](Nc1nc(Cl)nc2c1CN(C(=O)C1CCN(C)C1)C2)c1cc(N)cc(C(F)(F)F)c1 (stereo partly shown) ; IC50 = < 1000 nM

Entry C[C@@H](Nc1nc(Cl)nc2c1CN(C(=O)c1ccnnc1)C2)c1cc(N)cc(C(F)(F)F)c1 — recorded IC50 = < 1000 nM

Lookup result for C[C@@H](Nc1nc(Cl)nc2c1CN(C(=O)N1CCOCC1)C2)c1cccc(C(F)(F)C2CN(C)CCO2)c1 (stereo partly shown) ; measured IC50: < 1000 nM

Note to self: IC50 recorded for C[C@@H](Nc1nc(Cl)nc2c1CN(C(=O)c1cc(N3CCOCC3)ccn1)C2)c1cc(N)cc(C(F)(F)F)c1 was < 1000 nM

Lookup result for COC1(C(=O)N2Cc3nc(Cl)nc(NC(C)c4cccc(C(F)(F)CO)c4F)c3C2)CCOCC1 (stereo not shown) ; measured IC50: < 1000 nM

For this compound ( CNC1(C(=O)N2Cc3nc(Cl)nc(N[C@H](C)c4cccc(C(F)F)c4F)c3C2)CCOCC1 ), measured IC50 is < 1000 nM

The recorded IC50 for C[C@@H](Nc1nc(Cl)nc2c1CN(C(=O)[C@@]13CCC[C@@H]1OCC3)CC2)c1cc(N)cc(C(F)(F)F)c1 is > 1000 nM

Looking up C[C@@H](Nc1ncnc2c1CC(N1CC3(COC3)C1)CC2)c1cccc(C(F)(F)CO)c1 (stereo partly shown) , I see its IC50 listed as < 1000 nM

In plain terms, C[C@@H](Nc1nc(Cl)nc2c1CN(C(=O)c1nccnn1)CC2)c1cc(N)cc(C(F)(F)F)c1 has a documented IC50 of > 1000 nM

Form field IC50, entry C[C@@H](Nc1nc(Cl)nc2c1CN(S(=O)(=O)C1CCNCC1)CC2)c1cc(N)cc(C(F)(F)F)c1 : < 1000 nM

The reported value for C[C@@H](Nc1nc(Cl)nc2c1CN(C(=O)[C@@]13COC[C@@H]1CN(S(C)(=O)=O)C3)CC2)c1cc(N)cc(C(F)(F)F)c1 in terms of IC50 is > 1000 nM
